pIC50: −log10 of the molar value. Counter-ions that a name gives are not always drawn.
Reported pIC50, Jarid1A (Homo sapiens (Human)).

| compound | measuredTarget | pIC50 |
| --- | --- | --- |
| O=C(O)c1ccnc2cc(C(O)C3CC3)[nH]c12 (racemic) [Example 33] | Jarid1A (Homo sapiens (Human)) | > 7.00 |
| O=C(O)c1ccnc2cc(COc3cc(Cl)cc(Cl)c3)[nH]c12 [Example 83] | Jarid1A (Homo sapiens (Human)) | > 7.00 |
| O=C(O)c1ccnc2cc(C(O)c3ccccc3Cl)[nH]c12 (racemic) [Example 72] | Jarid1A (Homo sapiens (Human)) | > 7.00 |
| O=C(O)c1ccnc2cc(Cc3ccccc3)[nH]c12 [Example 7, sodium salt] | Jarid1A (Homo sapiens (Human)) | 6.00 to 7.00 |
| O=C(O)c1ccnc2cc(Cc3ccc(F)c(F)c3)[nH]c12 [Example 126] | Jarid1A (Homo sapiens (Human)) | 5.00 to 6.00 |
| O=C(O)c1ccnc2cc(C(=O)N3CCC(c4ccccc4)C3)[nH]c12 (stereo not drawn) [Example 116] | Jarid1A (Homo sapiens (Human)) | > 7.00 |
| O=C(O)c1ccnc2cc(Cc3ccc(C(F)(F)F)cc3)[nH]c12 [Example 56] | Jarid1A (Homo sapiens (Human)) | 6.00 to 7.00 |
| O=C(O)c1ccnc2cc(Cc3cc(F)c(Cl)c(Cl)c3)[nH]c12 [Example 132] | Jarid1A (Homo sapiens (Human)) | 5.00 to 6.00 |
| COC(=O)c1ccnc2cc(Cc3ccccc3)[nH]c12 [Example 6] | Jarid1A (Homo sapiens (Human)) | < 5.00 |

###

biological target: Jarid1B (Homo sapiens (Human), UniProt Q9UGL1); experiment: Jarid1B in vitro enzyme inhibition assay (TR-FRET); type: biochemical; conditions: TR-FRET, H3K4me3-biotin peptide; read-out: IC50 Jarid1B
Sequence (Q9UGL1 2-751): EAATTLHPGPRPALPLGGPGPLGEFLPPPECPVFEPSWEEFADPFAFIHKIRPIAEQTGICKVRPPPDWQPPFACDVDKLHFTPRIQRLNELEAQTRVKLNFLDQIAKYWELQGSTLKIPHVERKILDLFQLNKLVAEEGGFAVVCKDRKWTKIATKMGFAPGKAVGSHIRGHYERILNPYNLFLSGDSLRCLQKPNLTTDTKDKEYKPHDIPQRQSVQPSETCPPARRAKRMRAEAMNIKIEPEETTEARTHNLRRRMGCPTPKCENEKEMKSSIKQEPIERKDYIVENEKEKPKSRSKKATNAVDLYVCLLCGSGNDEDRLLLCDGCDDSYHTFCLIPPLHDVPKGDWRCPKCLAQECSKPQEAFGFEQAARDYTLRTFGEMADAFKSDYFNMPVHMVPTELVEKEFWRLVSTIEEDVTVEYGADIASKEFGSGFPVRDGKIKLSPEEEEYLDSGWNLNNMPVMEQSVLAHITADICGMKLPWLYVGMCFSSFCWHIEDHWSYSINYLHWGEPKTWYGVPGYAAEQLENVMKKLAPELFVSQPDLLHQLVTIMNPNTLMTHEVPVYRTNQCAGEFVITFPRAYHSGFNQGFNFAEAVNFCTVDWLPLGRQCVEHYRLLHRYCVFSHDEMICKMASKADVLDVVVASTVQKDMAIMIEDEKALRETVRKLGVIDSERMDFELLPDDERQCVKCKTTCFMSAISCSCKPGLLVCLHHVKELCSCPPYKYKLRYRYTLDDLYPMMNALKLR
Reported IC50 is given for each of the following compounds.
propertyName: IC50

| compound | propertyName | result |
| --- | --- | --- |
| O=C(O)c1ccnc2cc(COc3ccc(F)cc3)[nH]c12 | IC50 | < 100 nM |
| CC(C)(O)c1cc2nccc(C(=O)O)c2[nH]1 | IC50 | 100 to 1000 nM |
| COC(=O)c1ccnc2cc(C3(O)CCCCC3)[nH]c12 | IC50 | > 10000 nM |
| O=C(O)c1ccnc2c(Cl)c[nH]c12 | IC50 | > 10000 nM |
| O=C(O)c1ccnc2cc(COc3cc(F)cc(F)c3)[nH]c12 | IC50 | < 100 nM |
| COCc1cc2nccc(C(=O)O)c2[nH]1 | IC50 | 100 to 1000 nM |
| O=C(O)c1ccnc2cc(CO)[nH]c12 | IC50 | 100 to 1000 nM |
| CC(c1ccc(F)cc1)c1cc2nccc(C(=O)O)c2[nH]1 (stereo not shown) | IC50 | 100 to 1000 nM |
| O=C(O)c1ccnc2cc(Cc3ccc(F)c(Cl)c3)[nH]c12 | IC50 | < 100 nM |
| O=C(O)c1ccnc2cc(Cc3ccc(F)cc3)[nH]c12 | IC50 | < 100 nM |
| O=C(O)c1ccnc2cc(COc3ccc(Cl)cc3)[nH]c12 | IC50 | < 100 nM |
| COc1cccc(C(O)c2cc3nccc(C(=O)O)c3[nH]2)c1 (racemic) | IC50 | < 100 nM |
| COc1ccc(-c2cc3nccc(C(=O)O)c3[nH]2)c(C)c1 | IC50 | 100 to 1000 nM |
| O=C(O)c1ccnc2cc(-c3ccccc3)[nH]c12 | IC50 | 100 to 1000 nM |
| Cc1ccc(OCc2cc3nccc(C(=O)O)c3[nH]2)cc1 | IC50 | 100 to 1000 nM |
| O=C(O)c1ccnc2cc(C(O)CC3CC3)[nH]c12 (racemic) | IC50 | < 100 nM |
| CC(=O)Nc1ccc(OCc2cc3nccc(C(=O)O)c3[nH]2)cc1 | IC50 | 100 to 1000 nM |
| O=C(O)c1ccnc2cc(C(O)C3CCOCC3)[nH]c12 (racemic) | IC50 | < 100 nM |
| O=C(O)c1ccnc2cc(Cc3ccc(Cl)c(OCC4CC4)c3)[nH]c12 | IC50 | < 100 nM |
| N#Cc1ccc(OCc2cc3nccc(C(=O)O)c3[nH]2)cc1 | IC50 | 100 to 1000 nM |
| N#CCCc1cc2nccc(C(=O)O)c2[nH]1 | IC50 | 100 to 1000 nM |
| CCCOC(c1cc2nccc(C(=O)O)c2[nH]1)c1ccccc1Cl (racemic) | IC50 | < 100 nM |
| CCC(O)c1cc2nccc(C(=O)OC)c2[nH]1 (racemic) | IC50 | > 10000 nM |
| COc1cccc(Cc2cc3nccc(C(=O)O)c3[nH]2)c1 | IC50 | 100 to 1000 nM |
| COC(=O)c1ccnc2cc(C3CCCC3)[nH]c12 | IC50 | > 10000 nM |
